- experimental.target: NADPH oxidase 2 (Homo sapiens)
- protocol: NOX2-dependent H2O2 signal modulators, primary screen, NOX inhibitor project, cell-based, HEK293-NOX2, PMA-stimulated, Amplex Red fluorescence (AID 1159); note: test concentration not given here
- assay.setup: 45 min, higher = more signal, called active from +8 up or from −8 down
Criterion: z-score meeting or surpassing 0.5. Met: YES. Not met: NO.

Use the examples below as a reference point.
{"molecule": "O=C(NC1CC1)[C@@H]1c2ccccc2C(=O)N(C2CCCCC2)[C@H]1c1ccc(CO)cc1", "class.name": "NO"}
{"molecule": "CC[C@@H]1C=C(C(=O)O)[C@H](c2cccc(Cl)c2)N1S(=O)(=O)c1ccc(C)cc1", "class.name": "NO"}
{"molecule": "CCOC(=O)C[C@H]1[C@H](OC(=O)c2cc3ccccc3oc2=O)[C@@H](NC(=O)Cc2ccc(OC)cc2)c2cc(OCCCO)ccc2N1C(=O)Cc1ccc(OC)cc1", "class.name": "YES"}
{"molecule": "C[C@@]1([C@@H](NS(=O)(=O)c2cccc3cccnc23)c2ccc(-c3ccccc3)cc2)C[C@H]1C1CCCCC1", "class.name": "NO"}
{"molecule": "[N-]=[N+]=NCc1ccccc1C[C@@]1(C(N)=O)N=C(c2ccc(OCCCO)cc2)O[C@@H]1c1ccccc1N=[N+]=[N-]", "class.name": "NO"}
{"molecule": "C[C@]12C(=O)N(CCO)[C@@H]3C(=O)N(c4ccc(Cl)cc4)CC=CC31O[C@@H]1/C=C\\CCCOC(=O)C12 (stereo partly specified)", "class.name": "YES"}
{"molecule": "Cc1ccc(S(=O)(=O)N2[C@@H](c3ccccc3)C(C(=O)O)=CC[C@H]2c2ccc(F)cc2)cc1", "class.name": "NO"}
{"molecule": "C=CCN1C(=O)[C@@]2(O[C@@H](CCO)[C@H]([Si](C)(C)c3ccc(OC)cc3)[C@H]2C)c2cc(N3CCCCC3=O)ccc21", "class.name": "NO"}

Enquiry: Identify whether the reported z-score of the following molecule is 0.5 or greater: CN1C2C=C(c3ccc(CO)cc3)C(C3C(=O)N(C(N)=O)C(=O)C32)C1C1CC1 (stereo unspecified)
Return: NO

Enquiry: Same lookup for `CC(C)C[C@@H]1NC(=O)[C@@H]2C[C@H](C(=O)NCCCCCCNC(=O)CS)[C@H](c3ccc(O)cc3)N2C1=O` , please.
Return: YES

Enquiry: Can you check `CCCNC(=O)[C@@]1(Sc2ccc(C)cc2)CC(=O)N(Cc2cc(C(F)(F)F)cc(C(F)(F)F)c2)[C@@H]1c1ccc(CO)cc1` next?
Return: YES

Enquiry: Follow-up entry: `O=C(O)C1=CC[C@H]2C(=O)N(c3ccccc3)C(=O)[C@@H]12`
Return: YES

Enquiry: Input `CCOC(=O)C[C@H]1[C@H](OC(=O)Cc2ccc3c(c2)OCO3)[C@@H](NC(=O)CC(C)C)c2cc(OCCCO)ccc2N1C(=O)c1ccc2ccccc2n1`
Return: NO

Enquiry: Further, for `C[C@]1(C(=O)NCC(F)(F)F)c2ccccc2C(=O)N(Cc2cc(C(F)(F)F)cc(C(F)(F)F)c2)[C@H]1c1ccc(CO)cc1` ?
Return: NO

Enquiry: Do the same for `CC(C)Cc1ccc(CN2CC[C@@H](NC(=O)c3ccccc3)C2)cc1` please
Return: NO

Enquiry: Also check COC(=O)C1=CC(CCCO)=CC(c2ccc(CN3CCCC3)cc2)N(C)C=C1C(=O)OC (stereo unspecified)
Return: NO
